Where do the numbers come from? From patent US20040121946A9.

Target: HLA-A*3101 (Homo sapiens, UniProt P04439, A270S/D185E/E176V/E277Q/F33T/G231S/G80R/H175R/I121M/I218V/I322F/K168Q/L300P/L318F/M331R/P217A/Q94H/R138Q/T323A/T345S/T97I/V358M)
Assay type: binding
Settings: Table XXIII, HLA-A3 supermotif-bearing peptides
Where a SMILES comes first, the peptide text is derived from it. [ ]: non-standard residue; d: D form. Abu = CC[C@H](N)C(=O)O
Please note: IC50 exactly at 40 nM is not fulfilled. Only values below 40 nM get fulfilled.

[[record]]
compound = "CC[C@H](C)[C@H](N)C(=O)N[C@H](C(=O)N[C@@H](Cc1c[nH]c2ccccc12)C(=O)N[C@@H](CC(C)C)C(=O)NCC(=O)N[C@@H](CC(C)C)C(=O)N[C@@H](CCCNC(=N)N)C(=O)N[C@@H](CO)C(=O)N[C@@H](CC(C)C)C(=O)N[C@@H](CCCNC(=N)N)C(=O)O)C(C)C"
answer_label = "fulfilled"

[[record]]
compound = "CC[C@H](C)[C@H](N)C(=O)N[C@H](C(=O)N[C@@H](Cc1c[nH]c2ccccc12)C(=O)N[C@@H](CC(C)C)C(=O)NCC(=O)N[C@@H](CC(C)C)C(=O)N[C@@H](CCCNC(=N)N)C(=O)N[C@@H](CO)C(=O)N[C@@H](CC(C)C)C(=O)N[C@@H](CCCCN)C(=O)O)C(C)C"
answer_label = "not fulfilled"

[[record]]
compound = "CC[C@H](NC(=O)[C@H](CC(N)=O)NC(=O)[C@@H](NC(=O)[C@@H](N)CC)C(C)C)C(=O)N[C@@H](CO)C(=O)N[C@@H](CCC(N)=O)C(=O)N[C@@H](Cc1ccccc1)C(=O)N[C@@H](CC(C)C)C(=O)N[C@@H](CCCNC(=N)N)C(=O)O [Her2/neu.528.B1B4] (H-[Abu]VN[Abu]SQFLR-OH)"
answer_label = "fulfilled"

[[record]]
compound = "CC[C@H](NC(=O)[C@H](CC(N)=O)NC(=O)[C@@H](NC(=O)[C@@H](N)CC)C(C)C)C(=O)N[C@@H](CO)C(=O)N[C@@H](CCC(N)=O)C(=O)N[C@@H](Cc1ccccc1)C(=O)N[C@@H](CC(C)C)C(=O)N[C@@H](CCCCN)C(=O)O [Her2/neu.528.B1B4K9] (H-[Abu]VN[Abu]SQFLK-OH)"
answer_label = "not fulfilled"

[[record]]
compound = "CC(C)[C@H](NC(=O)[C@@H](N)[C@@H](C)O)C(=O)N[C@@H](CS)C(=O)N[C@@H](C)C(=O)NCC(=O)NCC(=O)N[C@@H](CS)C(=O)N[C@@H](C)C(=O)N[C@@H](CCCNC(=N)N)C(=O)O"
answer_label = "not fulfilled"


I wonder whether `CC[C@H](C)[C@H](N)C(=O)N[C@@H](CC(C)C)C(=O)N[C@@H](CCCCN)C(=O)NCC(=O)NCC(=O)N[C@H](C(=O)N[C@@H](CC(C)C)C(=O)N[C@H](C(=O)N[C@@H](CCC(N)=O)C(=O)N[C@@H](CCCNC(=N)N)C(=O)O)[C@@H](C)CC)C(C)C` has IC50 below 40 nM. Can you tell? fulfilled

I wonder whether `CC[C@H](C)[C@H](NC(=O)[C@H](CCC(=O)O)NC(=O)[C@@H](NC(=O)[C@H](CC(C)C)NC(=O)[C@H](CO)NC(=O)[C@H](CCCNC(=N)N)NC(=O)[C@H](CC(C)C)NC(=O)[C@@H](N)CCC(N)=O)[C@@H](C)O)C(=O)N[C@@H](CC(C)C)C(=O)N[C@@H](CCCCN)C(=O)O` has IC50 below 40 nM. Can you tell? not fulfilled

I wonder whether `CC[C@H](C)[C@H](NC(=O)[C@H](CC(=O)O)NC(=O)[C@H](CCCCN)NC(=O)[C@H](Cc1c[nH]c2ccccc12)NC(=O)[C@H](CC(C)C)NC(=O)[C@@H](NC(=O)[C@@H](N)[C@@H](C)O)C(C)C)C(=O)N[C@@H](Cc1ccccc1)C(=O)N[C@@H](Cc1c[nH]cn1)C(=O)N[C@@H](CCCNC(=N)N)C(=O)O` has IC50 below 40 nM. Can you tell? not fulfilled

I wonder whether `CC[C@H](C)[C@H](N)C(=O)N[C@H](C(=O)N[C@@H](CCCCN)C(=O)NCC(=O)NCC(=O)N[C@H](C(=O)N[C@@H](CC(C)C)C(=O)N[C@H](C(=O)N[C@@H](CCC(N)=O)C(=O)N[C@@H](CCCNC(=N)N)C(=O)O)[C@@H](C)CC)C(C)C)C(C)C` has IC50 below 40 nM. Can you tell? not fulfilled

I wonder whether `CC[C@H](C)[C@H](N)C(=O)N[C@@H](CC(C)C)C(=O)N[C@@H](Cc1c[nH]c2ccccc12)C(=O)N[C@@H](CCCCN)C(=O)N[C@@H](CC(=O)O)C(=O)N[C@H](C(=O)N[C@@H](Cc1ccccc1)C(=O)N[C@@H](Cc1c[nH]cn1)C(=O)N[C@@H](CCCCN)C(=O)O)[C@@H](C)CC` has IC50 below 40 nM. Can you tell? not fulfilled

I wonder whether `CC[C@H](C)[C@H](N)C(=O)N[C@H](C(=O)N[C@@H](Cc1c[nH]c2ccccc12)C(=O)N[C@@H](CCCCN)C(=O)N[C@@H](CC(=O)O)C(=O)N[C@H](C(=O)N[C@@H](Cc1ccccc1)C(=O)N[C@@H](Cc1c[nH]cn1)C(=O)N[C@@H](CCCNC(=N)N)C(=O)O)[C@@H](C)CC)C(C)C` has IC50 below 40 nM. Can you tell? fulfilled
